- conditions: buffer; pH 7.4; 200.0 µM
Threshold rule: solubility kinetic greater than or equal to 20 µg/mL is Yes; below that, No.

- compound: "COc1ccc(Nc2nc(C)cc(C)c2C#N)c(OC)c1"
  class-name: "No"
- compound: "Cc1cc2oc(=O)cc(CN(C)Cc3cccc(F)c3)c2cc1C"
  class-name: "No"
- compound: "Cc1cccc(C(=O)OCC(=O)N2CCCC2=O)c1[N+](=O)[O-]"
  class-name: "Yes"
- compound: "CN1CCN(c2ccc(NC(=O)CN3CCOCC3)cc2F)CC1"
  class-name: "Yes"
- compound: "Cc1nccc(-c2cc(-c3ccc(Cl)cc3Cl)no2)n1"
  class-name: "No"
- compound: "COc1cccc(Nc2ncnc3sccc23)c1"
  class-name: "Yes"
- compound: "CCc1ccc(NC(=O)c2cnccn2)cc1"
  class-name: "Yes"
- compound: "CN1C(=O)c2ccc(NC(=O)c3c(C(=O)O)cccc3[N+](=O)[O-])cc2C1=O"
  class-name: "Yes"
- compound: "CC(C)(C)C(=O)N(Cc1ccccc1)c1ccccn1"
  class-name: "Yes"
- compound: "CCN(Cc1cc(=O)[nH]c2ccccc12)C(=O)c1ccc(C)cc1"
  class-name: "Yes"
- compound: "Cc1ccc(NC(=S)NCCc2ccccc2)nc1"
  class-name: "No"
- compound: "CSc1sc(C(=O)NCC2CC2)c(-c2cccs2)c1C#N"
  class-name: "No"
- compound: "FC(F)(F)c1ccnc(N2CCN(Cc3cnc(-c4ccccc4)[nH]3)CC2)c1"
  class-name: "Yes"
- compound: "CC(C)(CNC(=O)Cc1ccc(Cl)cc1Cl)N1CCCCC1"
  class-name: "Yes"
- compound: "Cc1ccc(NC(=O)CN2CCOCC2)cc1"
  class-name: "Yes"
- compound: "Cc1ccc(C)c(OCC(=O)NC2CCCCCC2)c1"
  class-name: "No"
- compound: "COC(=O)c1cc(NC(=O)c2cccc(F)c2)cc(C(=O)OC)c1"
  class-name: "No"
- compound: "O=C(Nc1nc2ccccc2[nH]1)c1ccccc1[N+](=O)[O-]"
  class-name: "Yes"
- compound: "Cc1nc(N2CCNCC2)c2c3c(sc2n1)CCCC3"
  class-name: "Yes"
- compound: "O=CC(Br)P(=O)(N1CCOCC1)N1CCOCC1 (centres undefined)"
  class-name: "Yes"
- compound: "Clc1ccc(-c2nc(-c3ccncc3)no2)c(Cl)c1"
  class-name: "No"
- compound: "COCCNC(=S)N1CCC(C(=O)c2ccc(C)cc2)CC1"
  class-name: "Yes"
- compound: "Cc1ccc(C(=O)NCCc2nnc(SCC(=O)Nc3cccc(C(=O)O)c3)n2C)cc1"
  class-name: "Yes"
- compound: "COc1ccccc1OCC(=O)Nc1ccncc1"
  class-name: "Yes"
- compound: "Cc1cccc(C(=O)NCCc2ccccc2)c1"
  class-name: "Yes"
- compound: "COc1ccc(CCOC(=O)c2ccc(NC(=O)CC#N)cc2)cc1"
  class-name: "No"
- compound: "CCOC(=O)COc1c(Cl)cc(/C=C2\\N=C(C)OC2=O)cc1OC"
  class-name: "Yes"
- compound: "CSc1ccc(C2NC(=O)CCC2[N+](=O)[O-])cc1 (centres undefined)"
  class-name: "Yes"
- compound: "O=C(O)C1CCN(C(=O)c2cc(F)cc3c2OCOC3)CC1"
  class-name: "Yes"
- compound: "O=C(O)Cn1c(=O)n(Cc2ccccc2)c2ccccc21"
  class-name: "Yes"
- compound: "CC(C)c1ccc(NC(=O)c2ccccc2NC(=O)C2CCCCC2C(=O)O)cc1 (centres undefined)"
  class-name: "Yes"
- compound: "CCOc1nc(Nc2ccc(Cl)cc2)nc(OCC)n1"
  class-name: "No"
- compound: "O=C(c1ccoc1)N1CCC(CO)(CCc2ccccc2)CC1"
  class-name: "Yes"
- compound: "Cc1ccc(C(=O)NC(=S)NCc2ccccc2)cc1"
  class-name: "No"
- compound: "CC1CN=C(NC(=O)c2cccc([N+](=O)[O-])c2)S1.Cl (centres undefined)"
  class-name: "No"
- compound: "CN1CCN(C(=O)CNC(=O)c2cccs2)CC1"
  class-name: "Yes"
- compound: "COc1ccc(NC(=O)Nc2ccccc2SC)c(OC)c1"
  class-name: "No"
- compound: "O=C(OCc1ccc([N+](=O)[O-])cc1)c1cnc(Cl)c(Cl)c1"
  class-name: "No"
- compound: "Cc1cccnc1NC(=O)C1CCC1"
  class-name: "Yes"
- compound: "CCc1ccn2cc(-c3cc(-c4ccccc4)no3)nc2c1"
  class-name: "No"
- compound: "Cc1nc2ccccc2c(N)c1C(=O)/C=C/c1ccccc1"
  class-name: "Yes"
- compound: "Cc1ccc(C)c(OCCC(=O)OCC(=O)NC(=O)NC2CCCCC2)c1"
  class-name: "No"
- compound: "Cn1cnc2c1c(=O)[nH]c(=O)n2Cc1ccccc1"
  class-name: "Yes"
- compound: "CN(CC1COc2ccccc2O1)C(=O)CSc1nncs1 (centres undefined)"
  class-name: "Yes"
- compound: "O=C(Cc1ccc(S(=O)(=O)N2CCCC2)s1)Nc1cccc([N+](=O)[O-])c1"
  class-name: "Yes"
- compound: "Cc1cc(NC(=O)C2CC(=O)N(c3cccc(C)c3C)C2)no1 (centres undefined)"
  class-name: "Yes"
- compound: "O=C(NCc1cccs1)C1CC(=O)N(c2ccc(Cl)cc2)C1 (centres undefined)"
  class-name: "No"
- compound: "Cc1cc(O)cc(=O)n1C"
  class-name: "Yes"
- compound: "CC1CCc2sc(C(=O)OCC(=O)NC(N)=O)cc2C1 (centres undefined)"
  class-name: "No"
